Reported logP values are given for each entry in this list.
Experiment: Octanol-phosphate buffer partition coefficient, log P of the compound
Assay type: physicochemical
I'd appreciate a reply containing only the number, no unit.

# compound string, logP
rows = [
    ("[11CH3]Oc1ccc(-c2cn([C@@H]3O[C@H](CO)[C@H](O)[C@H](O)[C@H]3O)nn2)cc1", -0.1),
]

We next turn to a different molecule, shown below.
Reported logP of [11CH3]Oc1ccc2cc(-c3cn([C@@H]4O[C@H](CO)[C@H](O)[C@H](O)[C@H]4O)nn3)ccc2c1 : 1.4

* * *

Tested on: HEK293
Assay: Drug uptake in human HEK293 cells assessed as radioactivity after 30 mins
Format: ADME, cell-based
Details: hek293, 0.5 h
assay readout: Drug uptake

The reported HEK293 Drug uptake of [11CH3]Oc1ccc2cc(-c3cn([C@@H]4O[C@H](CO)[C@H](O)[C@H](O)[C@H]4O)nn3)ccc2c1 is 0.6%
